Where a name gives a salt, the structure may show the parent alone.
Recorded below: Kd, system ArsR (Helicobacter pylori).
Phrase the answer as number then unit, nothing more needed.

compound | Kd
C[C@H](CCC(=O)O)[C@H]1CC[C@H]2[C@@H]3CC[C@@H]4C[C@H](O)CC[C@]4(C)[C@H]3CC[C@]12C | 4.9 µM
CCCCCN(CCCCC)C(=O)C(CCC(=O)O)NC(=O)c1ccc(Cl)c(Cl)c1 (stereo not drawn) [Lorglumide sodium salt] | 0.67 µM

State its Kd for this compound: CC[N+](C)(CC)CCC[n+]1c(-c2ccccc2)c2cc(N)ccc2c2ccc(N)cc21 [Propidium iodide]
18 µM

The values you see were collected from paper PMC7232201.
